These data points were gathered from patent US4005217A.

- Test system: Nippostrongylus brasiliensis
- measurement protocol: Test 2: activity against roundworms in rats, treatment 24 hours after infection, worm counts 6 days after dosing
- Assay type: in vivo
- assay setup: Nippostrongylus brasiliensis, 144 h; rats, Test 2, 1000 mg/kg oral; read-out: Percentage reduction in N.brasiliensis load
Counter-ions that a name gives are not always drawn.
Item-by-item account of inhibition in vivo at 1000 mg/kg
Could you give the number and then its unit, please?

These solved cases illustrate the format of a correct answer.
- CCOC(=O)NC(=S)Nc1ccccc1NC(=O)CN(C)C [hydrochloride]: 98%
- CCOC(=O)NC(=S)Nc1ccc(F)cc1N: 50%
- CCOC(=O)NC(=S)Nc1ccccc1NC(=O)CN1CCN(C)CC1.Cl [hydrochloride]: 100%
- Nc1ccccc1NC(=S)NC(=O)OCCCl: 96%
- COC(=O)NC(=S)Nc1ccc(NC(=O)OC(C)C)cc1N: 100%

Query: inhibition in vivo at 1000 mg/kg; subject: `CCOC(=O)NC(=S)Nc1ccccc1NC(=O)C[N+](C)(C)C`
60%

// returns reported inhibition in vivo at 1000 mg/kg for input `CCOC(=O)NC(=S)Nc1ccc(NC(=O)OC(C)C)cc1NC(C)=O`
62%

Looking for the measured inhibition in vivo at 1000 mg/kg of `CCCCc1ccc(NC(=S)NC(=O)OC)c(NC(C)=O)c1` , can you help?
98%

Please give the measured inhibition in vivo at 1000 mg/kg for this molecule: `CCCCc1ccc(NC=O)c(NC(=S)NC(=O)OC)c1`
96%

Entry `COC(=O)NC(=S)Nc1ccc(C(C)=O)cc1N` : reported inhibition in vivo at 1000 mg/kg = ?
73%

====

- Test system: Nippostrongylus brasiliensis
- measurement protocol: Test 2: activity against roundworms in rats, treatment 24 hours after infection, worm counts 6 days after dosing
- Format: in vivo
- assay setup: Nippostrongylus brasiliensis, 144 h; rats, Test 2, 1000 mg/kg oral; read-out: Percentage reduction in N.brasiliensis load
Structures can show the parent of a compound that is named as a salt.
property measured: inhibition in vivo at 1000 mg/kg (%)
Please respond with the number in % and leave the unit unwritten.

* COC(=O)NC(=S)Nc1ccccc1NC(=O)C=CC(=O)O | 99

Which inhibition in vivo at 1000 mg/kg reading was recorded for the compound CCOC(=O)NC(=S)Nc1cc(NC(=O)OC(C)C)ccc1NC(=O)CN(C)C [hydrochloride] ?
100

Consider the compound shown here: `CCOC(=O)Nc1ccc(NC(=S)NC(=O)OC)c(N)c1` What is its recorded inhibition in vivo at 1000 mg/kg?
99

Please give the measured inhibition in vivo at 1000 mg/kg for this compound: CCCCc1ccc(NC(=O)CN(C)C)c(NC(=S)NC(=O)OCC)c1 [hydrochloride]
88

Returns the measured inhibition in vivo at 1000 mg/kg for the input compound. Input: `CCCCc1ccc(NC(=O)OCC)c(NC(=S)NC(=O)OC)c1`
96

====

- Test system: Haemonchus contortus
- measurement protocol: Activity against mature adult stages in lambs, oral treatment (Table III)
- Assay type: in vivo
- assay setup: 120 h, 15 mg/kg oral, read-out: Mean percentage reduction in worm burdens, H.contortus
Where a name gives a salt, the structure may show the parent alone.
Tick YES if inhibition in vivo at 15 mg/kg is 80% or greater. Tick NO if inhibition in vivo at 15 mg/kg is less than 80%.

- COC(=O)NC(=S)Nc1ccccc1NC(=O)CN(C)C [hydrochloride]: NO

Determine whether this compound has inhibition in vivo at 15 mg/kg no lower than 80%: `COC(=O)NC(=S)Nc1ccc(NC(=O)OC(C)C)cc1NC=O`
NO

Determine whether measured inhibition in vivo at 15 mg/kg meets or exceeds 80% for `CCCCc1ccc(NC(=S)NC(=O)OC)c(NC(=O)C2CC2)c1`
NO

In plain terms: is recorded inhibition in vivo at 15 mg/kg at least 80% for `CCCCc1ccc(NC(=S)NC(=O)OC)c(NC(C)=O)c1` ?
NO

Evaluate `COC(=O)NC(=S)Nc1ccc(NC(=O)OC(C)C)cc1N` : inhibition in vivo at 15 mg/kg at minimum 80%?
YES

Please check the record `CCCCc1ccc(NC(=S)NC(=O)OC)c(NC=O)c1` and state if its inhibition in vivo at 15 mg/kg is at or above 80%.
YES
